Test: Ratio of IC50 of DB to that of NADH oxidase
attribute.measured: Ratio
No unit in the answer, only the number.

1. CCCCCCCCCCC(=O)[C@H]1CC[C@H]([C@H]2CC[C@H](C(=O)CCCCC(=O)CCCCCCCC3=C[C@H](C)OC3=O)O2)O1 | 1.5
2. CCCCCC/C(CCC[C@H](O)[C@H]1CC[C@H]([C@H]2CC[C@H]([C@H](O)CCCCCCCCCCCCC3=C[C@H](C)OC3=O)O2)O1)=N\O | 1.2
3. CCCCCCCCCC[C@H](O)[C@H]1CC[C@H]([C@H]2CC[C@H]([C@H](O)CCCCC(O)CCCCCCCC3=C[C@H](C)OC3=O)O2)O1 (stereo partly drawn) | 2
4. CCCCCCCCCCC(=O)[C@H]1CC[C@@H]([C@@H]2CC[C@H]([C@H](O)CCCCCCCCCCC(=O)CC3=C[C@H](C)OC3=O)O2)O1 | 1.8

Enquiry: Reported Ratio for CCCCCCCCCC[C@H](OS(C)(=O)=O)[C@H]1CC[C@@H]([C@@H]2CC[C@H]([C@@H](CCCCCCCCCC[C@H](CC3=C[C@H](C)OC3=O)OS(C)(=O)=O)OS(C)(=O)=O)O2)O1 : what is it?
Return: 260

Enquiry: Reported Ratio for CCCCCCCCCC[C@H](O)[C@H]1CC[C@@H]([C@@H]2CC[C@H]([C@H](O)CCCCCCCCCC[C@@H](O)CC3=C[C@H](C)OC3=O)O2)O1 [rolliniastatin-1] : what is it?
Return: 1.2

====

Assay: Inhibition of NADH decylubiquinone (DB) oxidoreductase activity.
Design: species or system Bos taurus
attribute.measured: pIC50
Please treat pIC50 as minus the base-10 logarithm of the molar concentration.

Here is how some molecules turned out for pIC50.
1. CCCCCC[C@H](O)CCC[C@H](O)[C@H]1CC[C@H]([C@H]2CC[C@H]([C@H](O)CCCCCCCCCCCCC3=C[C@H](C)OC3=O)O2)O1 | 9.11
2. CCCCCCCCCC[C@H](O)[C@H]1CC[C@@H]([C@@H]2CC[C@H]([C@H](O)CCCCCCCCCCC(=O)CC3=C[C@H](C)OC3=O)O2)O1 | 9.35
3. CCCCCCCCCC[C@H](O)[C@H]1CC[C@H]([C@H]2CC[C@H]([C@H](O)CCCC/C(CCCCCCCC3=C[C@H](C)OC3=O)=N\O)O2)O1 | 9.17

Enquiry: Reported pIC50 for CCCCCCCCCCC(=O)[C@H]1CC[C@@H]([C@@H]2CC[C@H]([C@H](O)CCCCCCCCCCC(=O)CC3=C[C@H](C)OC3=O)O2)O1 : what is it?
Return: 9.22

Enquiry: Reported pIC50 for CCCCCCCCCC[C@H](O)[C@H]1CC[C@@H]([C@@H]2CC[C@H]([C@H](O)CCCCCCCCCC[C@@H](O)CC3=C[C@H](C)OC3=O)O2)O1 : what is it?
Return: 9.13

====

Molecular target: Mitochondrial complex I; NADH oxidoreductase (Bos taurus, UniProt P25708+P52505)
Sequence (P25708 21-464 limits assumed, other chains not shown): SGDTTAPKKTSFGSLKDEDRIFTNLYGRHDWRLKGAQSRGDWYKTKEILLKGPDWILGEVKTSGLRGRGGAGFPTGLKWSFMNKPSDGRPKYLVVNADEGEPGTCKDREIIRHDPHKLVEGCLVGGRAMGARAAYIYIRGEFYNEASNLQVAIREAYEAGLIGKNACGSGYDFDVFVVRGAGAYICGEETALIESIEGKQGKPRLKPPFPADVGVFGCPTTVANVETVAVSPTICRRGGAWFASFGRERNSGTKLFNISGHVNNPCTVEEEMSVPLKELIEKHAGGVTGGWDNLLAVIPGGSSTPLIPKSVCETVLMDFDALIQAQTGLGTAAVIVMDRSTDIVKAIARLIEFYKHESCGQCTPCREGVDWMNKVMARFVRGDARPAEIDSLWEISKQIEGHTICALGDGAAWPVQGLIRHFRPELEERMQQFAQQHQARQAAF
Assay: Inhibition of NADH oxidase activity.
attribute.measured: IC50 (pM)
Provide the reading as a plain figure in pM.

1) CCCCCC[C@H](O)CCC[C@H](O)[C@H]1CC[C@H]([C@H]2CC[C@H]([C@H](O)CCCCCCCCCCCCC3=C[C@H](C)OC3=O)O2)O1 | 590
2) CCCCCCCCCC[C@H](O)[C@H]1CC[C@@H]([C@@H]2CC[C@H]([C@H](O)CCCCCCCCCC/C(CC3=C[C@H](C)OC3=O)=N\O)O2)O1 | 250
3) CCCCCC(CCCC[C@H](OC(C)=O)[C@H]1CC[C@H]([C@H]2CC[C@H]([C@@H](CCCCCCCCCCCCC3=C[C@H](C)OC3=O)OC(C)=O)O2)O1)OC(C)=O (stereo not given in full) | 2100
4) CCCCCCCCCC/C(=N\O)[C@H]1CC[C@@H]([C@@H]2CC[C@H]([C@H](O)CCCCCCCCCC/C(CC3=C[C@H](C)OC3=O)=N\O)O2)O1 | 340

Now, please, on to the next compound.
Enquiry: Reported IC50 for CCCCCC/C(CCC[C@H](O)[C@H]1CC[C@H]([C@H]2CC[C@H]([C@H](O)CCCCCCCCCCCCC3=C[C@H](C)OC3=O)O2)O1)=N\O : what is it?
Return: 740
